The following compounds are listed with their measured ED50 values.
Tested on: epileptic seizures
Experiment: ED50 of the individual compounds, seizure model not given (various models of the rat and the mouse)
Type: in vivo
Conditions: ip

// ED50 lookup, key: CC[C@@H](C(N)=O)N1CCCC1=O
~20 mg/kg

// ED50 lookup, key: COC[C@@H](NC(C)=O)C(=O)NCc1ccccc1
~10 mg/kg

// ED50 lookup, key: Nc1nnc(-c2cccc(Cl)c2Cl)c(N)n1
~85 mg/kg

// ED50 lookup, key: NCC1(CC(=O)O)CCCCC1
~220 mg/kg
